System: BEN;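 note: growth inhibition of the BEN cell line, read out with a cell viability assay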
ASSAY_DETAILS: cells
Type: functional, cell-based, Homo sapiens
SETUP_CONDITIONS: Homo sapiens, BEN
Description: SANGER: Inhibition of human BEN cell growth in a cell viability assay.
READOUT_LABEL: IC50

Please review the following examples before continuing.
COMPOUND: COc1cc(F)c(F)c(Nc2ccc(I)cc2F)c1NS(=O)(=O)C1(CC(O)CO)CC1 (stereo unspecified)
IC50: > 5 µM
//
COMPOUND: Cc1cnc(-c2cnc(NCCNc3ccc(C#N)cn3)nc2-c2ccc(Cl)cc2Cl)[nH]1
IC50: > 2.56 µM
//
COMPOUND: Cn1cncc1[C@@](N)(c1ccc(Cl)cc1)c1ccc2c(c1)c(-c1cccc(Cl)c1)cc(=O)n2C
IC50: 5.4 µM

Supply measured IC50 of C[C@]1(O)C[C@@H](c2nc(-c3ccc4ccc(-c5ccccc5)nc4c3)c3c(N)nccn32)C1 in your reply.
> 2.56 µM

Supply measured IC50 of O=c1cc(-c2cccc3c2Sc2ccccc2S3)oc(N2CCOCC2)c1 in your reply.
> 10 µM

Supply measured IC50 of CN(Cc1cnc2nc(N)nc(N)c2n1)c1ccc(C(=O)N[C@@H](CCC(=O)O)C(=O)O)cc1 [METHOTREXATE] in your reply.
> 0.2 µM

Source of measurements: ChEMBL document CHEMBL1201861
